- SYSTEM: T1, human TL1A extracellular domain with N-terminal HIS and FLAG tag (human, UniProt O95150 72-251)
- T1 construct: the whole entry is named; also called TNFSF15
- T1 sequence: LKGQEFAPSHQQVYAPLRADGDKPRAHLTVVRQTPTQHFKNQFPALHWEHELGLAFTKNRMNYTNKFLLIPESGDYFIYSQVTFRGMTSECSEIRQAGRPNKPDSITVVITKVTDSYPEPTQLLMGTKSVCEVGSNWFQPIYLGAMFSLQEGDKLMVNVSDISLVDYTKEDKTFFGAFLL
- ASSAY SUMMARY: SPR Run 7, antibody on Protein A, TL1A 5 ug/mL, timepoint 44
Recorded measurements of TL1A Binding Level (Early), one per entry
QUANTITY: TL1A Binding Level (Early) (RU)

[[record]]
binder = "320-492 (antibody, human IgG1, name in Kabat numbering, V domains shown, full-length human IgG1, lambda) VH: QVQLVQSGAEVKKPGASVKVSCKASGYTFTSYDINWVRQAPGQGLEWMGWQNPNSGNTGYAQKFQGRVTMTADRSTSTAYMELSSLRSEDTAVYYCAREVPETAAFEYWGQGTLVTVSS VL: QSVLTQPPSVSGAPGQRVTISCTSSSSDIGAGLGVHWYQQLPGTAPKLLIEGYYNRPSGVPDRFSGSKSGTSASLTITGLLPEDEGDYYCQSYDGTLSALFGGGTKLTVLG"
value = 89

[[record]]
binder = "320-499 (antibody, human IgG1, name in Kabat numbering, V domains shown, full-length human IgG1, lambda) VH: QVQLVQSGAEVKKPGASVKVSCKASGYTFTSYDINWVRQAPGQGLEWMGWLQPNSGNTGYAQKFQGRVTMTADRSTSTAYMELSSLRSEDTAVYYCAREVPETAAFEYWGQGTLVTVSS VL: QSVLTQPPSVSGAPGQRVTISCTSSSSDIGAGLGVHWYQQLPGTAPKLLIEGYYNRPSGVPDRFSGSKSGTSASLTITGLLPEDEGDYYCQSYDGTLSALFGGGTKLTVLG"
value = 122

[[record]]
binder = "320-553 (antibody, human IgG1, name in Kabat numbering, V domains shown, full-length human IgG1, lambda) VH: QVQLVQSGAEVKKPGASVKVSCKASGYTFTSYDINWVRQAPGQGLEWMGWLNPNSGNKGYAQKFQGRVTMTADRSTSTAYMELSSLRSEDTAVYYCAREVPETAAFEYWGQGTLVTVSS VL: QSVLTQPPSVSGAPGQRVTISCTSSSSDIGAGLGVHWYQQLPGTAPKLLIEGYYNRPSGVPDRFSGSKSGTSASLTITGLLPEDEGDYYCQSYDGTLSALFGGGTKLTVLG"
value = 84

[[record]]
binder = "320-566 (antibody, human IgG1, name in Kabat numbering, V domains shown, full-length human IgG1, lambda) VH: QVQLVQSGAEVKKPGASVKVSCKASGYTFTSYDINWVRQAPGQGLEWMGWLNPNSGNTGAAQKFQGRVTMTADRSTSTAYMELSSLRSEDTAVYYCAREVPETAAFEYWGQGTLVTVSS VL: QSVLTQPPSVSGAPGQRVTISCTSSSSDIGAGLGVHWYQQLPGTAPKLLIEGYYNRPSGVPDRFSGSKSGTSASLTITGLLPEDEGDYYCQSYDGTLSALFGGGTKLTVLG"
value = 120

[[record]]
binder = "320-576 (antibody, human IgG1, name in Kabat numbering, V domains shown, full-length human IgG1, lambda) VH: QVQLVQSGAEVKKPGASVKVSCKASGYTFTSYDINWVRQAPGQGLEWMGWLNPNSGNTGYKQKFQGRVTMTADRSTSTAYMELSSLRSEDTAVYYCAREVPETAAFEYWGQGTLVTVSS VL: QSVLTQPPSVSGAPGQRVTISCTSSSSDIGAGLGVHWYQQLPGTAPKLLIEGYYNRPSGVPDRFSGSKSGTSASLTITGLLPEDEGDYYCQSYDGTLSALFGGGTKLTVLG"
value = 90

[[record]]
binder = "320-549 (antibody, human IgG1, name in Kabat numbering, V domains shown, full-length human IgG1, lambda) VH: QVQLVQSGAEVKKPGASVKVSCKASGYTFTSYDINWVRQAPGQGLEWMGWLNPNSGNSGYAQKFQGRVTMTADRSTSTAYMELSSLRSEDTAVYYCAREVPETAAFEYWGQGTLVTVSS VL: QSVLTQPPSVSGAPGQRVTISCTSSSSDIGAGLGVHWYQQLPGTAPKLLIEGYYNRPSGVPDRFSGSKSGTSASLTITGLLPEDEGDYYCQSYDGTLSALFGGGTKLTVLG"
value = 50

[[record]]
binder = "320-495 (antibody, human IgG1, name in Kabat numbering, V domains shown, full-length human IgG1, lambda) VH: QVQLVQSGAEVKKPGASVKVSCKASGYTFTSYDINWVRQAPGQGLEWMGWKNPNSGNTGYAQKFQGRVTMTADRSTSTAYMELSSLRSEDTAVYYCAREVPETAAFEYWGQGTLVTVSS VL: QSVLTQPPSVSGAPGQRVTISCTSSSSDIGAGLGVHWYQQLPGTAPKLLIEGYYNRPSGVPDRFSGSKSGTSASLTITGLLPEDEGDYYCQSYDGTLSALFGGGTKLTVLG"
value = 84

[[record]]
binder = "320-500 (antibody, human IgG1, name in Kabat numbering, V domains shown, full-length human IgG1, lambda) VH: QVQLVQSGAEVKKPGASVKVSCKASGYTFTSYDINWVRQAPGQGLEWMGWLDPNSGNTGYAQKFQGRVTMTADRSTSTAYMELSSLRSEDTAVYYCAREVPETAAFEYWGQGTLVTVSS VL: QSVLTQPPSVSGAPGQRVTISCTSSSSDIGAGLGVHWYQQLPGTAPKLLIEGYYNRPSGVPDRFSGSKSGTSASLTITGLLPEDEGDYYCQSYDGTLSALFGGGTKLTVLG"
value = 69

[[record]]
binder = "320-545 (antibody, human IgG1, name in Kabat numbering, V domains shown, full-length human IgG1, lambda) VH: QVQLVQSGAEVKKPGASVKVSCKASGYTFTSYDINWVRQAPGQGLEWMGWLNPNSGLTGYAQKFQGRVTMTADRSTSTAYMELSSLRSEDTAVYYCAREVPETAAFEYWGQGTLVTVSS VL: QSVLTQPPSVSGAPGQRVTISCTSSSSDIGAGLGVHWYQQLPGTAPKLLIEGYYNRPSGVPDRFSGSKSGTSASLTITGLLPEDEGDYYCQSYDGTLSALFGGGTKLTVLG"
value = 109

[[record]]
binder = "320-560 (antibody, human IgG1, name in Kabat numbering, V domains shown, full-length human IgG1, lambda) VH: QVQLVQSGAEVKKPGASVKVSCKASGYTFTSYDINWVRQAPGQGLEWMGWLNPNSGNTDYAQKFQGRVTMTADRSTSTAYMELSSLRSEDTAVYYCAREVPETAAFEYWGQGTLVTVSS VL: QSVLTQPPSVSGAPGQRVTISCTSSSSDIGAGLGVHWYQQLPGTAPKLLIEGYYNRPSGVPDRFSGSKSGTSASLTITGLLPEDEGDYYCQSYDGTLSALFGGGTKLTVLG"
value = 36

